Listing: ratio of amounts bound (Z=Y/X) of selected binders
Target: T1, CD3 epsilon homodimer protein (UniProt P07766 23-126)
T1 construct: also called CD3 (CD3 epsilon)
T1 sequence (P07766 23-126): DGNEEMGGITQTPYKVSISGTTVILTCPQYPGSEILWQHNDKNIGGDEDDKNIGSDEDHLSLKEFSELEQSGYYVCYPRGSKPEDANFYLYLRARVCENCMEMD
Experiment: SPR Biacore T200, CD3e homodimer on chip, vs unaltered GLS3000 antibody
Answer using only a numeral; do not append any unit.

GLS3000 T92S (antibody, name in Kabat numbering, V domains shown, one-arm IgG as m2) VH: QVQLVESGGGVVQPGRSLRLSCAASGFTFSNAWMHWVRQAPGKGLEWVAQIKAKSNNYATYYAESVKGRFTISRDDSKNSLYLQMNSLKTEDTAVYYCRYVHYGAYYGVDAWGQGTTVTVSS VL: DIVMTQSPLSLPVTPGEPASISCRSSQSLVHSNRNTYLHWYQQKPGQAPRLLIYKVSNRFSGVPDRFSGSGSGTDFTLKISRVEAEDVGVYYCGQGSQVPYTFGQGTKLEIK = 0.96

Request: Given the binder GLS3000 N28M (antibody, name in Kabat numbering, V domains shown, one-arm IgG as m2) VH: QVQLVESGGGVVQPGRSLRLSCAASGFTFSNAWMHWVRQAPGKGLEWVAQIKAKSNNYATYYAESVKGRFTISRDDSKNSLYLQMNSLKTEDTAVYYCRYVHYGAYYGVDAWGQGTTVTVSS VL: DIVMTQSPLSLPVTPGEPASISCRSSQSLVHSMRNTYLHWYQQKPGQAPRLLIYKVSNRFSGVPDRFSGSGSGTDFTLKISRVEAEDVGVYYCGQGTQVPYTFGQGTKLEIK , write its reported ratio of amounts bound (Z=Y/X).
Response: 0.39

Request: Given the binder GLS3000 N53L (antibody, name in Kabat numbering, V domains shown, one-arm IgG as m2) VH: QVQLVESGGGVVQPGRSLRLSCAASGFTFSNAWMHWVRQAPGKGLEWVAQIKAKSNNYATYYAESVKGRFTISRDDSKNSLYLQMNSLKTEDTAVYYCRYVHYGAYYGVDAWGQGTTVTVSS VL: DIVMTQSPLSLPVTPGEPASISCRSSQSLVHSNRNTYLHWYQQKPGQAPRLLIYKVSLRFSGVPDRFSGSGSGTDFTLKISRVEAEDVGVYYCGQGTQVPYTFGQGTKLEIK , write its reported ratio of amounts bound (Z=Y/X).
Response: 0.56
